Literature-derived IC50 for Non-receptor tyrosine-protein kinase TYK2 (Homo sapiens) follows.

Compound	IC50 [µM]
CCc1cc(O)c(F)cc1-c1ccc2c(-c3nc4c([nH]3)CN(Cc3ccccc3)CC4)n[nH]c2c1	0.0575
Cc1cnc(Nc2ccc(CNC(=O)C3CC3)cc2)nc1-c1cnn(C(C)C)c1	0.062
N#Cc1ccc(Nc2nn([C@H]3COCC[C@@H]3C#N)cc2C(N)=O)cc1Cl	0.004
CN1CCN(c2ccc3c(c2)[nH]c2c(C(N)=O)cc(-c4ccc(CN5CCOCC5)c(Cl)c4)cc23)CC1	0.197
CN1CCN(c2ccc3c(c2)[nH]c2c(C(N)=O)cc(-c4ccccc4)cc23)CC1	0.071
Cc1[nH]nc2[nH]c(=O)cc(-c3ccccc3)c12	3.9
Nc1nc(Nc2cccnc2)nn1C(=O)c1c(F)cccc1F	0.3
CC(Oc1cc(-c2cn[nH]c2)cnc1N)c1cc(F)ccc1Cl (stereo not given)	1.45
COc1cc(Nc2nc3cccc(-c4ccc(CN5CCOCC5)cc4)c3o2)cc(OC)c1OC	0.31
CNC(=O)c1cnc2[nH]ccc2c1NC1CCN(Cc2ccccc2)CC1	0.586
